Experiment: Selectivity ratio of EC50 for human TAAR1 expressed in HEK293 cells to EC50 for mouse TAAR1 expressed in HEK293 cells
Assay type: cell-based
List of Ratio EC50 values.
Parameter Measured: Ratio EC50

>>> df
                                    compound  parameter_measured  comparative_sign  observed
 0              NC(N)=N/C(N)=N/Cc1ccc(Cl)cc1          Ratio EC50                 =      2.31
 1  N=C(N)NC(=N)Nc1ccc(Cl)cc1 [4-CHLOROPHENYLBIGUANIDE]          Ratio EC50                 >      4.76
 2                    N=C(N)NC(=N)NCc1ccccc1          Ratio EC50                 >      12.8
 3            CC(C)NC(=N)NC(=N)Nc1ccc(Cl)cc1          Ratio EC50                 >      1.85
 4          NC(N)=N/C(N)=N/Cc1ccc(Cl)c(Cl)c1          Ratio EC50                 =      33.3
 5              NC(N)=N/C(N)=N/Cc1cccc(Cl)c1          Ratio EC50                 =      72.2
 6                   N=C(N)NC(=N)Nc1ccccc1Cl          Ratio EC50                 =      2.44
 7                NC(N)=N/C(N)=N/Cc1ccccc1Cl          Ratio EC50                 =      7.31
 8               NC(N)=N/C(N)=N/Cc1cccc(F)c1          Ratio EC50                 =      2.96
 9                  Cc1ccc(NC(=N)N=C(N)N)cc1          Ratio EC50                 >      5.88
10              NC(N)=N/C(N)=N/Cc1cccc(Br)c1          Ratio EC50                 =      2.72

---

# Emax values compiled below
Target: Trace amine-associated receptor 1 (Homo sapiens) (UniProt Q96RJ0)
Sequence (whole entry): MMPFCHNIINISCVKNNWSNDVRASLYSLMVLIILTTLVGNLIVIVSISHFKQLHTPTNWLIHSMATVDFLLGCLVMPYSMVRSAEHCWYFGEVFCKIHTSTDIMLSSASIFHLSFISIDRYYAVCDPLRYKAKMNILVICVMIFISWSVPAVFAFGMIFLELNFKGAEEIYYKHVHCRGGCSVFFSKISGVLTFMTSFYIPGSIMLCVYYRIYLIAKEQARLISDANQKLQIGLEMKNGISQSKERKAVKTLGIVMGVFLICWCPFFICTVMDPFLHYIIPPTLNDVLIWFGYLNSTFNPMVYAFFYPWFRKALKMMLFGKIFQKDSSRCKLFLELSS
Assay: Agonist activity at human TAAR1 expressed in HEK293 cells assessed as cAMP accumulation at 10 uM after 20 mins by BRET assay relative to beta-PEA
Format: functional, cell-based
Parameter Measured: Emax

>>> print(df.to_string())
                                    molecule  parameter_measured  observed
 0            CC(C)NC(=N)NC(=N)Nc1ccc(Cl)cc1                Emax     > 85%
 1              NC(N)=N/C(N)=N/Cc1cccc(Cl)c1                Emax     > 85%
 2                  Cc1ccc(NC(=N)N=C(N)N)cc1                Emax     > 85%
 3                   N=C(N)NC(=N)Nc1ccccc1Cl                Emax     > 85%
 4  N=C(N)NC(=N)Nc1ccc(Cl)cc1 [4-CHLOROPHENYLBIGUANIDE]                Emax     > 85%
 5                    N=C(N)NC(=N)NCc1ccccc1                Emax     > 85%
 6                NC(N)=N/C(N)=N/Cc1ccccc1Cl                Emax     > 85%
 7          NC(N)=N/C(N)=N/Cc1ccc(Cl)c(Cl)c1                Emax     > 85%
 8              NC(N)=N/C(N)=N/Cc1cccc(Br)c1                Emax     > 85%
 9              NC(N)=N/C(N)=N/Cc1ccc(Cl)cc1                Emax     > 85%
10               NC(N)=N/C(N)=N/Cc1cccc(F)c1                Emax     > 85%

---

EC50 for assorted compounds
Target: Trace amine-associated receptor 1 (Homo sapiens, UniProt Q96RJ0)
Experiment: Agonist activity at human TAAR1 expressed in HEK293 cells assessed as cAMP accumulation after 20 mins by BRET assay
Format: functional, cell-based
Parameter Measured: EC50 (µM)

In [3]: df
Out[3]:
                                    compound                               measured_on  parameter_measured  comparative_sign  observed
 0                    N=C(N)NC(=N)NCc1ccccc1  Trace amine-associated receptor 1 (Homo sapiens, UniProt Q96RJ0)                EC50                 >        10
 1  N=C(N)NC(=N)Nc1ccc(Cl)cc1 [4-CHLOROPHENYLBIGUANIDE]  Trace amine-associated receptor 1 (Homo sapiens, UniProt Q96RJ0)                EC50                 >        10
 2  [H]/N=C(\N/C(=N/[H])Nc1ccc(Cl)cc1)NC(C)C  Trace amine-associated receptor 1 (Homo sapiens, UniProt Q96RJ0)                EC50                 >        10
 3              NC(N)=N/C(N)=N/Cc1ccc(Cl)cc1  Trace amine-associated receptor 1 (Homo sapiens, UniProt Q96RJ0)                EC50                 =       1.8
 4              NC(N)=N/C(N)=N/Cc1cccc(Cl)c1  Trace amine-associated receptor 1 (Homo sapiens, UniProt Q96RJ0)                EC50                 =         7
 5          NC(N)=N/C(N)=N/Cc1ccc(Cl)c(Cl)c1  Trace amine-associated receptor 1 (Homo sapiens, UniProt Q96RJ0)                EC50                 =       1.2
 6                   N=C(N)NC(=N)Nc1ccccc1Cl  Trace amine-associated receptor 1 (Homo sapiens, UniProt Q96RJ0)                EC50                 =         1
 7               NC(N)=N/C(N)=N/Cc1cccc(F)c1  Trace amine-associated receptor 1 (Homo sapiens, UniProt Q96RJ0)                EC50                 =       1.6
 8              NC(N)=N/C(N)=N/Cc1cccc(Br)c1  Trace amine-associated receptor 1 (Homo sapiens, UniProt Q96RJ0)                EC50                 =       4.9
 9                NC(N)=N/C(N)=N/Cc1ccccc1Cl  Trace amine-associated receptor 1 (Homo sapiens, UniProt Q96RJ0)                EC50                 =         3
10                  Cc1ccc(NC(=N)N=C(N)N)cc1  Trace amine-associated receptor 1 (Homo sapiens, UniProt Q96RJ0)                EC50                 >        10

---

Target: Trace amine-associated receptor 1 (Homo sapiens) (UniProt Q96RJ0)
Experiment: Agonist activity at human TAAR1 expressed in HEK293 cells assessed as cAMP accumulation at 10 uM after 20 mins by BRET assay relative to beta-PEA
Type: functional, cell-based
Activity calls are given as the source filed them. The rule behind the calls is not given here.
Parameter Measured: Activity

In [3]: df
Out[3]:
                  compound_smiles  observed
0   N=C(N)NC(=N)Nc1ccc(Cl)c(Cl)c1  inactive
1  COc1ccc(C/N=C(\N)N=C(N)N)cc1OC  inactive
2     COc1ccc(/N=C(\N)N=C(N)N)cc1  inactive

Reference source for all entries: ChEMBL document CHEMBL3992498
